Each recorded value in this set is attributed to patent US8748435B2.

molecular target: human GPR4 (Homo sapiens (Human), UniProt P46093); assay: Human GPR4 binding assay ([3H]4 radioligand, membranes of 300.19 cells expressing human GPR4); conditions: radioligand [3H]4 (example 39), membranes of 300.19 cells expressing human GPR4
Sequence (P46093 whole entry): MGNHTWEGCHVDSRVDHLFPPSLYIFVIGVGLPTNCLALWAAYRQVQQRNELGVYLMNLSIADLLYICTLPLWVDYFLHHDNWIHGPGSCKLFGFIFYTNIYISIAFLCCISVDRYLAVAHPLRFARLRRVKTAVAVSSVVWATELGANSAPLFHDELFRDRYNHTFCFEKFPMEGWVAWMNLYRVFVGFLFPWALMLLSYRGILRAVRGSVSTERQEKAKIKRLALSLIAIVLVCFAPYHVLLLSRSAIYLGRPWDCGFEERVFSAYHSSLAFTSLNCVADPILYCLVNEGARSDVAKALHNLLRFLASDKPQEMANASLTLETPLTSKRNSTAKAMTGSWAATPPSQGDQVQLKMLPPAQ
pIC50: −log10 of the molar value. Counter-ions that a name gives are not always drawn.
ASSAY READOUT: pIC50

{"columns": ["MOLECULE", "TARGET OF ASSAY", "ASSAY READOUT", "OBSERVED VALUE"],
 "data": [
  ["CCc1nn2c(C)cc(C)nc2c1Cc1ccc(/C=C/CN2CCN(C(=O)[C@H]3NCC[C@H]3O)CC2)cc1 [Example 16, dihydrochloride]", "human GPR4 (Homo sapiens (Human), UniProt P46093)", "pIC50", 7.46],
  ["CCc1nn2c(C)cc(C)nc2c1Cc1ccc(/C=C/CN2CCN[C@H](COC)C2)cc1 [Example 10]", "human GPR4 (Homo sapiens (Human), UniProt P46093)", "pIC50", 7.48],
  ["CCc1nn2c(C)cc(C)nc2c1Cc1ccc(/C=C/CC2(O)CCNCC2)cc1 [Example 3]", "human GPR4 (Homo sapiens (Human), UniProt P46093)", "pIC50", 7.36],
  ["CCc1nn2c(C)cc(C)nc2c1Cc1ccc(/C=C/C[C@]2(O)CCN[C@@H](C)C2)cc1 [Example 5]", "human GPR4 (Homo sapiens (Human), UniProt P46093)", "pIC50", 7.82],
  ["CCc1nn2c(C)cc(C)nc2c1Cc1ccc(/C=C/CN2CCN[C@H](CO)C2)cc1 [Example 8, dihydrochloride]", "human GPR4 (Homo sapiens (Human), UniProt P46093)", "pIC50", 7.55],
  ["CCc1nn2c(C)cc(C)nc2c1Cc1ccc(-c2nnc([C@H]3CC[C@H](N)CC3)o2)cc1 [Example 36]", "human GPR4 (Homo sapiens (Human), UniProt P46093)", "pIC50", 8.30]
]}
